Here, each record is paired with measured Rel EC50 data.
- Subject Of Test: T1, DcR3 (UniProt O95407 30-300, limits assumed)
- T1 construct: the construct is not described; also called decoy receptor DcR3; TNFRSF6B
- T1 sequence (looked up): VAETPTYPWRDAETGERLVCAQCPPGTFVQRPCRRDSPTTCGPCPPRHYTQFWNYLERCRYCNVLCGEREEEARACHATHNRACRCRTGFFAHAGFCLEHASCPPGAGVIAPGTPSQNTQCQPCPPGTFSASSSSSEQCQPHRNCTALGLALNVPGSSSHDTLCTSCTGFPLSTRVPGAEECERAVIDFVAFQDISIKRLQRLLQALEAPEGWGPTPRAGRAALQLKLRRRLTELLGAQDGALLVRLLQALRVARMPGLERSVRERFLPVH
- Protocol Text: ELISA, DcR3

Binder	Result
TL1W127 (His-TEV-TL1A Y238A) (ligand, also called TL1W127 (Y238A)) HHHHHHENLYFQGLKGQEFAPSHQQVYAPLRADGDKPRAHLTVVRQTPTQHFKNQFPALHWEHELGLAFTKNRMNYTNKFLLIPESGDYFIYSQVTFRGMTSECSEIRQAGRPNKPDSITVVITKVTDSYPEPTQLLMGTKSVCEVGSNWFQPIYLGAMFSLQEGDKLMVNVSDISLVDATKEDKTFFGAFLL	1.9 ratio (head: nM)

State the recorded Rel EC50 for this entry: TL1W133 (His-TEV-TL1A T239F) (ligand, also called TL1W133 (T239F)) HHHHHHENLYFQGLKGQEFAPSHQQVYAPLRADGDKPRAHLTVVRQTPTQHFKNQFPALHWEHELGLAFTKNRMNYTNKFLLIPESGDYFIYSQVTFRGMTSECSEIRQAGRPNKPDSITVVITKVTDSYPEPTQLLMGTKSVCEVGSNWFQPIYLGAMFSLQEGDKLMVNVSDISLVDYFKEDKTFFGAFLL 2.3 ratio (head: nM)

State the recorded Rel EC50 for this entry: TL1W139 (His-TEV-TL1A E241Q) (ligand, also called TL1W139 (E241Q)) HHHHHHENLYFQGLKGQEFAPSHQQVYAPLRADGDKPRAHLTVVRQTPTQHFKNQFPALHWEHELGLAFTKNRMNYTNKFLLIPESGDYFIYSQVTFRGMTSECSEIRQAGRPNKPDSITVVITKVTDSYPEPTQLLMGTKSVCEVGSNWFQPIYLGAMFSLQEGDKLMVNVSDISLVDYTKQDKTFFGAFLL 3.8 ratio (head: nM)

State the recorded Rel EC50 for this entry: TL1W116 (His-TEV-TL1A T192K) (ligand, also called TL1W116 (T192K)) HHHHHHENLYFQGLKGQEFAPSHQQVYAPLRADGDKPRAHLTVVRQTPTQHFKNQFPALHWEHELGLAFTKNRMNYTNKFLLIPESGDYFIYSQVTFRGMTSECSEIRQAGRPNKPDSITVVITKVTDSYPEPKQLLMGTKSVCEVGSNWFQPIYLGAMFSLQEGDKLMVNVSDISLVDYTKEDKTFFGAFLL 5.1 ratio (head: nM)

State the recorded Rel EC50 for this entry: TL1W100 (His-TEV-TL1A S176L) (ligand, also called TL1W100 (S176L)) HHHHHHENLYFQGLKGQEFAPSHQQVYAPLRADGDKPRAHLTVVRQTPTQHFKNQFPALHWEHELGLAFTKNRMNYTNKFLLIPESGDYFIYSQVTFRGMTSECSEIRQAGRPNKPDLITVVITKVTDSYPEPTQLLMGTKSVCEVGSNWFQPIYLGAMFSLQEGDKLMVNVSDISLVDYTKEDKTFFGAFLL 3.3 ratio (head: nM)

State the recorded Rel EC50 for this entry: TL1W101 (His-TEV-TL1A S176N) (ligand, also called TL1W101 (S176N)) HHHHHHENLYFQGLKGQEFAPSHQQVYAPLRADGDKPRAHLTVVRQTPTQHFKNQFPALHWEHELGLAFTKNRMNYTNKFLLIPESGDYFIYSQVTFRGMTSECSEIRQAGRPNKPDNITVVITKVTDSYPEPTQLLMGTKSVCEVGSNWFQPIYLGAMFSLQEGDKLMVNVSDISLVDYTKEDKTFFGAFLL 4.4 ratio (head: nM)

All values here come from patent US20220056104A1.
